- Tested on: LOC_OS03G27990-cb004;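 further: purified Escherichia coli-expressed rice kinase domain construct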
- TEST_DESCRIPTION: thermal shift delta Tm vs DMSO control; higher = stronger stabilization (binding)
- CONDITION_SET: 12.5 µM; protein concentration 2 µM
Recorded measurements of thermal shift delta Tm, one per entry
Give the value, in units of °C, as a plain number.

Consider the following illustrative entries.
COMPOUND	UNIT	thermal shift delta Tm
Cc1c(NC(=O)OC[C@@H]2COCCN2)cn2ncnc(Nc3ccc4c(cnn4Cc4cccc(F)c4)c3)c12	°C	0.14
C#Cc1cccc(Nc2ncnc3cc(OCCOC)c(OCCO)cc23)c1	°C	0.08
COc1nccc(-c2c(-c3ccc(F)cc3)ncn2C2CCC(O)CC2)n1 (configuration not stated)	°C	0.19
Cc1ccc(S(=O)(=O)/C=C/C#N)cc1	°C	-0.15

Fill in reported thermal shift delta Tm for this entry: CC[C@@H]1C(=O)N(C)c2cnc(Nc3ccc(C(=O)N[C@H]4CC[C@H](N5CCN(CC6CC6)CC5)CC4)cc3OC)nc2N1C(C)C [Volasertib (BI 6727)]
0.69

Fill in reported thermal shift delta Tm for this entry: Cc1c[nH]c2nc(Nc3ccc(N4CCN(C)CC4)c(F)c3)nc(-c3cccc(CC#N)c3)c12
8.79

Fill in reported thermal shift delta Tm for this entry: CO[C@H]1C[C@@H]2CC[C@@H](C)[C@@](O)(O2)C(=O)C(=O)N2CCCC[C@H]2C(=O)O[C@H]([C@H](C)C[C@@H]2CC[C@@H](OP(C)(C)=O)[C@H](OC)C2)CC(=O)[C@H](C)/C=C(\C)[C@@H](O)[C@@H](OC)C(=O)[C@H](C)C[C@H](C)/C=C/C=C/C=C/1C [Ridaforolimus (Deforolimus, MK-8669)]
0.01
